Assay: Cytotoxicity (CC50) Huh-7
Format: cell-based
Conditions: human, Huh-7 cells
The compounds listed here are annotated with their CC50.

Below, each entry is followed by its recorded CC50 result.
{"compound": "Nc1ccn([C@@H]2CS[C@H](CO)O2)c(=O)n1 [3TC (Lamivudine), Lamivudine, reference compound]", "reported-metric": "CC50", "value": "> 400 µM"}
{"compound": "Cc1cn([C@H]2O[C@@H](CO[P@@](=O)(N[C@@H](C)C(=O)OC(C)C)Oc3ccccc3)[C@H](O)[C@H]2F)c(=O)[nH]c1=O", "reported-metric": "CC50", "value": "> 400 µM"}
{"compound": "Cc1cn([C@H]2O[C@@H](CO)[C@H](O)[C@H]2F)c(=O)[nH]c1=O [EIDD-02020, Clevudine, reference compound]", "reported-metric": "CC50", "value": "> 400 µM"}

Then this compound:
# query: CC50 of entry Cc1cn([C@H]2O[C@@H](CO[P@](=O)(N[C@@H](C)C(=O)OC(C)C)Oc3ccccc3)[C@H](O)[C@H]2F)c(=O)[nH]c1=O
290 µM

----------
Assay: Cytotoxicity (CC50) H9c
Format: cell-based
Settings: rat, H9c cells
reported-metric: CC50 (µM)
Entry rule: numbers only, all in µM.

{"smiles-input": "Cc1cn([C@H]2O[C@@H](CO[P@](=O)(N[C@@H](C)C(=O)OC(C)C)Oc3ccccc3)[C@H](O)[C@H]2F)c(=O)[nH]c1=O", "reported-metric": "CC50", "unit-annotation": "µM", "value": 311}

Then this compound:
# query: CC50 of entry Cc1cn([C@H]2O[C@@H](CO[P@@](=O)(N[C@@H](C)C(=O)OC(C)C)Oc3ccccc3)[C@H](O)[C@H]2F)c(=O)[nH]c1=O
344

----------
Assay: Cytotoxicity (CC50) A204
Format: cell-based
Details: human, A204 cells
The molecules listed here are annotated with their CC50.
Entry rule: numbers only, all in µM.

# query: CC50 of entry Cc1cn([C@H]2O[C@@H](CO[P@@](=O)(N[C@@H](C)C(=O)OC(C)C)Oc3ccccc3)[C@H](O)[C@H]2F)c(=O)[nH]c1=O
330

Next up: Cc1cn([C@H]2O[C@@H](CO[P@](=O)(N[C@@H](C)C(=O)OC(C)C)Oc3ccccc3)[C@H](O)[C@H]2F)c(=O)[nH]c1=O
374

----------
Assay: Cytotoxicity by XTT staining in the HBV efficacy assay
Type: cell-based
Settings: human, HepG2.2.15 cells
The compounds listed here are annotated with their CC50 at 6 days.

Below, each entry is followed by its recorded CC50 at 6 days result.
{"compound": "Cc1cn([C@H]2O[C@@H](CO[P@](=O)(N[C@@H](C)C(=O)OC(C)C)Oc3ccccc3)[C@H](O[P@](=O)(N[C@@H](C)C(=O)OC(C)C)Oc3ccccc3)[C@H]2F)c(=O)[nH]c1=O [EIDD-02309]", "value": "85.1 µM"}
{"compound": "Cc1cn([C@H]2O[C@@H](CO[P@@](=O)(N[C@@H](C)C(=O)OC(C)C)Oc3ccccc3)C(O)C2F)c(=S)[nH]c1=O (stereo partly drawn) [EIDD-02335-1]", "value": "> 100 µM"}
{"compound": "Cc1cn([C@H]2O[C@@H](CO[P@](=O)(N[C@@H](C)C(=O)OC(C)C)Oc3ccccc3)[C@H](O)[C@H]2F)c(=O)[nH]c1=O [EIDD-02174]", "value": "> 100 µM"}

# query: CC50 at 6 days of entry Cc1cn([C@H]2O[C@@H](CO[P@@](=O)(N[C@@H](C)C(=O)OC(C)C)Oc3ccccc3)[C@H](O[P@@](=O)(N[C@@H](C)C(=O)OC(C)C)Oc3ccccc3)[C@H]2F)c(=O)[nH]c1=O [EIDD-02308]
> 100 µM

Next up: Cc1cn([C@H]2O[C@@H](CO[P@@](=O)(N[C@@H](C)C(=O)OC(C)C)Oc3ccccc3)[C@H](O)[C@H]2F)c(=O)[nH]c1=O [EIDD-02173]
> 100 µM

Next up: Nc1ccn([C@@H]2CS[C@H](CO)O2)c(=O)n1 [3TC (Lamivudine), Lamivudine, reference compound]
> 10 µM

Next up: Cc1cn([C@H]2O[C@@H](CO[P@](=O)(N[C@@H](C)C(=O)OC(C)C)Oc3ccccc3)C(O)C2F)c(=S)[nH]c1=O (stereo partly drawn) [EIDD-02334-1]
> 100 µM

Next up: Cc1cn([C@H]2O[C@@H](CO)C(O)C2F)c(=S)[nH]c1=O (stereo partly drawn) [EIDD-02333-1]
> 100 µM

Next up: Cc1cn([C@H]2O[C@@H](CO)[C@H](O)[C@H]2F)c(=O)[nH]c1=O [EIDD-02020, Clevudine, reference compound]
> 100 µM

----------
Assay: Cytotoxicity (CC50) CEM
Type: cell-based
Settings: human, CEM cells
reported-metric: CC50

Below, each entry is followed by its recorded CC50 result.
{"compound": "Cc1cn([C@H]2O[C@@H](CO[P@@](=O)(N[C@@H](C)C(=O)OC(C)C)Oc3ccccc3)[C@H](O)[C@H]2F)c(=O)[nH]c1=O [EIDD-02173]", "CC50": "140 µM"}
{"compound": "Cc1cn([C@H]2O[C@@H](CO[P@](=O)(N[C@@H](C)C(=O)OC(C)C)Oc3ccccc3)[C@H](O)[C@H]2F)c(=O)[nH]c1=O [EIDD-02174]", "CC50": "> 400 µM"}

# query: CC50 of entry Cc1cn([C@H]2O[C@@H](CO)[C@H](O)[C@H]2F)c(=O)[nH]c1=O [EIDD-02020, Clevudine, reference compound]
> 400 µM
